Cited source for all entries: patent US20250057918A1

- Measurement target: T1, mouse IL-18BP (amino acids 31-194) (mouse, UniProt Q9Z0M9 29-193, biotinylated on the AviTag (BirA ligase))
- T1 construct: Secreted decoy receptor; made in Expi293 cells (H7 signal peptide); the stated range is the same as for the human protein; also called mIL-18BP
- T1 sequence: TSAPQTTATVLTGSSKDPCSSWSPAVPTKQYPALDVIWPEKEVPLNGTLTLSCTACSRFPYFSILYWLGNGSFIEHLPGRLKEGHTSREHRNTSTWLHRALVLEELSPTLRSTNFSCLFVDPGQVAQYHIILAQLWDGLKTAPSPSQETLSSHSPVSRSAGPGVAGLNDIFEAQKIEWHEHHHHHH
- Procedure text: SPR; KD IL-18BP / KD IL-18Rα; SPR; ratio of two KDs
We label by threshold. Values of KD ratio: IL-18BP/IL-18Rα strictly beneath 30000 are satisfied. Values of 30000 and up are not satisfied.

Q: API: query returns whether the binder falls strictly under 30000 in KD ratio: IL-18BP/IL-18Rα. Query: mCS1 (ligand, recombinant with C-terminal hexahistidine tag in SPR) NFGRLHCTTAVIRNINDQVLFVDKRQPVFEDMTDIDQSASEPQTRLIIYGYADSRVRGKAVTLSVKDSKMSTLSCKNKIISFEEMDPPENIDDIQSDLIFFQKRVPGHNKMEFESSLYEGHFLACQKEDDAFKLILKKKDENGDKSVMFTLTNLHQS
Result: satisfied

Q: API: query returns whether the binder falls strictly under 30000 in KD ratio: IL-18BP/IL-18Rα. Query: mCS2 (ligand, recombinant with C-terminal hexahistidine tag in SPR; also called DR-IL-18 (mCS2); DR-18 variant mCS2) HFGRLHCTTAVIRNINDQVLFVDKRQPVFEDMTDIDQSASEPQTRLIIYAYGDSRARGKAVTLSVKDSKMSTLSCKNKIISFEEMDPPENIDDIQSDLIFFQKRVPGHNKMEFESSLYEGHFLACQKEDDAFKLILKKKDENGDKSVMFTLTNLHQS
Result: not satisfied
